- assayed.system: Sho1, P40073
- Sequence (P40073 287-367): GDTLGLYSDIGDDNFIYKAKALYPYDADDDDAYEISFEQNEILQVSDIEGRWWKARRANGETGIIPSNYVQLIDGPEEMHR
- test.protocol: SPOT array
- conditions.used: median of control spots 1148
endpoint: SPOT intensity
// return just the number, without any unit appended

Q. SPOT intensity for `DAPASKPSVPPRNYF` ?
A. 0

Q. SPOT intensity for `TTNRGPPPLPPRANV` ?
A. 58

Q. SPOT intensity for `LFMKGTPEFPKSGFS` ?
A. 17

Q. SPOT intensity for `RRRDFGAPANKRPRR` ?
A. 90

Q. SPOT intensity for `PAPPPPPRASRPTPN` ?
A. 0

Q. SPOT intensity for `FLIKFTPKFPQSIDH` ?
A. 304

Q. SPOT intensity for `KRNRLKILLPFLEQS` ?
A. 81

Q. SPOT intensity for `QFDLKMPSKPIHNLK` ?
A. 7

Q. SPOT intensity for `GAGERPRLVPRPINV` ?
A. 4

Q. SPOT intensity for `KDKKTKPTPPPKPSH` ?
A. 50

Q. SPOT intensity for `QPPLPSSAPPIPTSH` ?
A. 0

Q. SPOT intensity for `PSTMDFPKLPSFQNS` ?
A. 25

Q. SPOT intensity for `KRKRFNLLLPKPYLT` ?
A. 98

Q. SPOT intensity for `NRARYLPQNPDIIAG` ?
A. 10

Q. SPOT intensity for `FPPKRKPLLRPQRSD` ?
A. 154

Origin of the recorded values: paper PMC2756588
